Test system: Botulinum neurotoxin type F light chain protease (Clostridium botulinum)
Assay: Botulinum neurotoxin type F light chain protease inhibition, multiplex microsphere flow cytometry, validation set (AID 588459)
Settings: multiplex microsphere protease substrate cleavage assay, at 10 µM, hits give high values
metricName: inhibition (%)
Answer in %, number only, no unit symbol.

Worked examples, 8 compounds total:
compound=Cc1ccc2nc(N=C(N)N)nc(C)c2c1 metricname=inhibition unitssymbol=% observedvalue=3.2
compound="COc1ccc2c(c1)C=CC1(O2)N(CCO)c2ccccc2C1(C)C (stereo unspecified)" metricname=inhibition unitssymbol=% observedvalue=3
compound=COc1ccc(CN(CCN(C)C)c2ccccn2)cc1 metricname=inhibition unitssymbol=% observedvalue=0.8
compound=CCOCCCNCc1cn(-c2ccc(F)cc2F)nc1-c1ccccc1C metricname=inhibition unitssymbol=% observedvalue=-0.4
compound=Cn1c(=O)c2c(ncn2Cc2ccccc2)n(C)c1=O metricname=inhibition unitssymbol=% observedvalue=3.3
compound="CC(=O)O[C@H]1C(=O)[C@@]2(C)[C@H]([C@H](OC(=O)c3ccccc3)[C@]3(O)C[C@H](OC(=O)[C@H](O)C(NC(=O)c4ccccc4)c4ccccc4)C(C)=C1C3(C)C)[C@]1(OC(C)=O)CO[C@@H]1C[C@@H]2O (stereo partly specified)" metricname=inhibition unitssymbol=% observedvalue=1.1
compound=O=C1C=Cc2ccccc2C1=O metricname=inhibition unitssymbol=% observedvalue=-1.2
compound=Nc1[nH]c(=O)ncc1F metricname=inhibition unitssymbol=% observedvalue=1.1

Task item: Output measured inhibition for this item: COc1ccc(O)c(C2=Nc3ccccc3N=C(c3ccccc3)C2)c1
Reply: 0.8

Task item: Output measured inhibition for this item: Cc1ccc2c(CN3CCN(Cc4ccc5c(c4)OCO5)CC3)cc(=O)oc2c1C
Reply: -2.8

Task item: Output measured inhibition for this item: O=C(Nc1ccc(Cl)cn1)Nc1ccccc1Cl
Reply: 2.9
